target: human NTPDase2 (Homo sapiens, UniProt Q9Y5L3); details: analogue 100 μM as substrate; activity with 100 μM ATP set as 100%
Sequence (Q9Y5L3 whole entry): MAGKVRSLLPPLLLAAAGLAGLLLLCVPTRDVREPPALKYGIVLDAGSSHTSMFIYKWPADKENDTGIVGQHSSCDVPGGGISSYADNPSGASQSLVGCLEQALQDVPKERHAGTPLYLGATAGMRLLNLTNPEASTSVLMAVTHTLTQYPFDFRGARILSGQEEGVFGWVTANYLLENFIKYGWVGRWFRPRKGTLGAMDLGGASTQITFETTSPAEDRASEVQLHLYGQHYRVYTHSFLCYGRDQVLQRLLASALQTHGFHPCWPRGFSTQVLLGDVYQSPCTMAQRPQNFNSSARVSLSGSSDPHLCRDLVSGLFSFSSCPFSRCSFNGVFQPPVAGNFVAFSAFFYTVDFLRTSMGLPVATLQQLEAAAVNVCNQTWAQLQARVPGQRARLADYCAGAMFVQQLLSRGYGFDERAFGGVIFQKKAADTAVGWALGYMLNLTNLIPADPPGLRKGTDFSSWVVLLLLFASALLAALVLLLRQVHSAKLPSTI
measure: relative activity (%) ± SD of ATP hydrolysis, NTPDase2

[
  {
    "compound": "Nc1ncnc2c1ncn2[C@@H]1O[C@H](COP(=O)(O)CP(=O)(O)OP(O)(O)=S)[C@@H](O)[C@H]1O [compound 3]",
    "system": "human NTPDase2 (Homo sapiens, UniProt Q9Y5L3)",
    "test_result": "4.7 ± 0.2%"
  },
  {
    "compound": "Nc1ncnc2c1ncn2[C@@H]1O[C@H](CO[P@](O)(=S)OP(=O)(O)CP(=O)(O)O)[C@@H](O)[C@H]1O [1a]",
    "system": "human NTPDase2 (Homo sapiens, UniProt Q9Y5L3)",
    "test_result": "4.7 ± 1.7%"
  },
  {
    "compound": "Nc1ncnc2c1ncn2[C@@H]1O[C@H](CO[P@@](O)(=S)OP(=O)(O)CP(=O)(O)O)[C@@H](O)[C@H]1O [1b]",
    "system": "human NTPDase2 (Homo sapiens, UniProt Q9Y5L3)",
    "test_result": "5.5 ± 0.3%"
  },
  {
    "compound": "Nc1ncnc2c1nc(S)n2[C@@H]1O[C@H](COP(=O)(O)OP(=O)(O)OP(=O)(O)O)[C@@H](O)[C@H]1O [compound 4]",
    "system": "human NTPDase2 (Homo sapiens, UniProt Q9Y5L3)",
    "test_result": "73 ± 2%"
  },
  {
    "compound": "Nc1ncnc2c1ncn2[C@@H]1O[C@H](CO[P@@](O)(=S)OP(=O)(O)C(Cl)(Cl)P(=O)(O)O)[C@@H](O)[C@H]1O [2b]",
    "system": "human NTPDase2 (Homo sapiens, UniProt Q9Y5L3)",
    "test_result": "5.5 ± 0.2%"
  },
  {
    "compound": "Nc1ncnc2c1ncn2[C@@H]1O[C@H](CO[P@](O)(=S)OP(=O)(O)C(Cl)(Cl)P(=O)(O)O)[C@@H](O)[C@H]1O [2a]",
    "system": "human NTPDase2 (Homo sapiens, UniProt Q9Y5L3)",
    "test_result": "5.2 ± 0.1%"
  }
]
